System: MS2 coat protein
Assay: apparent Kd, MS2 coat protein; higher = weaker binding; RNA-MaP array
Conditions: ligand present: flavin mononucleotide; designed as: ON switch for flavin mononucleotide
Observed property: apparent Kd
Lab note: write values as number then unit, every time.

Quick one: give me apparent Kd for each item below, same order please.
1. CGAGUCUUAUAGAAGGUAGACAUGAGGAUCACCCAUGUACUGGCAACGAAUAGUCGUAGUACACCUAAGGAUAUAUGGGAUGAG
2. AGAAGGGACGAGAAGGUACGAUCGAGUAAACUAUGAUAUGGGCACAUGAGGAUCACCCAUGUAUGUAAGGAUAUCGCAUCUCCA
3. AAAACAUGAGGAUCACCCAUGUUGAUCAAACACCAGACCAAGAGAAGGAUCAGCACCGAGUGAUGAAAGGAUAUCUAUUAACGG
4. UAGCAGUUCACAGGAUAUAGUUUGCGAUAAGUUUAUUUAUGAGAGACAUGAGGAUCACCCAUGUACUAGAAGGGUGAGAAAUAA

52.3 nM
41.1 nM
23.8 nM
130 nM

Would you mind listing apparent Kd for each of the following sequences?
1. GUGAACGUCAAAGGAUAUGUCGGAACUGCUAGAACAGAAGGUUGGGAAUCGGAUUGGUUGCACAUGAGGAUCACCCAUGUUGAG
2. UCCGGCGUUGACUAGGAUAUACGGAGGGUAACAUGAGGAUCACCCAUGUAAAGAACUAAAACAGCGUAGAAGGAGUCCAAAGCGAC
3. CGCCCUAAAGAUAAGGAUAUUCAGUUAGUAACAUGAGGAUCACCCAUGUGCACAUUUCACUUGAUGAAGAAGGUAUCUGGAACAUU

1. 264 nM
2. 19.1 nM
3. 6.1 nM
